tested_target: T1, purified interference factor(s), Donor C
T1 construct: also called interference in serum from Donor C
protocol_summary: SPR, interference factor immobilized
value_kind: % of binding of reference (=100%)

SEQ ID NO: 67 (VHH, Ex. 8) VHH: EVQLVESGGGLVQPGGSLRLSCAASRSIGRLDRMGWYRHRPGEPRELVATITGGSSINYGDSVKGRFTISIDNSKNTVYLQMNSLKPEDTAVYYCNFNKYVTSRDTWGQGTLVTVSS
96%
SEQ ID NO: 77 (VHH, Ex. 8) VHH: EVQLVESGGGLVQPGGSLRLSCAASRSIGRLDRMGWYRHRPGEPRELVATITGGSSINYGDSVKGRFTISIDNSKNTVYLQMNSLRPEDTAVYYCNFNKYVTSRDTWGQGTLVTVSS
13%
SEQ ID NO: 79 (VHH, Ex. 8) VHH: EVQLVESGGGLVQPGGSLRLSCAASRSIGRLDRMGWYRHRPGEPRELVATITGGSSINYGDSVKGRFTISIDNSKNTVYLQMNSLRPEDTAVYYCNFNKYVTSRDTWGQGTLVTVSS
13%

As a next step, examine the binder that follows.
Input SEQ ID NO: 80 (VHH, Ex. 8) VHH: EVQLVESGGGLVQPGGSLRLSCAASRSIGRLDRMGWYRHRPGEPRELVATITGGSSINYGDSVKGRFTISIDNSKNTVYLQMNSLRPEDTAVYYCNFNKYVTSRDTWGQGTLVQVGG . Output % of binding of reference (=100%): 58%
